Tested Target: Serine/threonine-protein kinase mTOR (Homo sapiens, UniProt P42345)
Please provide measured IC50 for the entries that follow.
One number for each entry, in nM.

>>> print(df.to_string())
                    structure_smiles_string  measured_property  recorded_value
0  CN1CCN(C(=O)C2CCN(c3ccnc4c3c(/C=C3\Oc5ccc(NC(=O)Nc6cccnc6)cc5C3=O)cn4C)CC2)CC1               IC50              70

GET /value?item= CN(Cc1ccccc1)C(=O)C1CCN(c2ccnc3c2c(/C=C2\Oc4ccc(NC(=O)Nc5cccnc5)cc4C2=O)cn3C)CC1 &field=IC50 returns 102

====

Assay Explanation: Selectivity ratio of IC50 for PI3Kalpha to IC50 for mTOR
Field: Ratio IC50. Provide a value for each of the compounds that follow.
Numbers only.

Quick batch: Ratio IC50 for everything below.
1. Cn1cc(/C=C2\Oc3ccc(NC(=O)Nc4ccc(N5CCOCC5)nc4)cc3C2=O)c2c(N3CC4CCC(C3)O4)ccnc21
2. Cn1cc(/C=C2\Oc3cccc(O)c3C2=O)c2c(-c3ccccc3)ccnc21
3. Cn1cc(/C=C2\Oc3ccc(NC(=O)Nc4cccnc4)cc3C2=O)c2c(N3CCC(C(=O)N4CCCCC4)CC3)ccnc21
4. CN(Cc1ccncc1)C(=O)C1CCN(c2ccnc3c2c(/C=C2\Oc4ccc(NC(=O)Nc5cccnc5)cc4C2=O)cn3C)CC1
5. Cn1cc(/C=C2\Oc3ccc(NC(=O)Nc4cccnc4)cc3C2=O)c2c(N3C4CCC3COC4)ccnc21
6. Cn1cc(/C=C2\Oc3ccc(NC(=O)Nc4cccnc4)cc3C2=O)c2c(N3CCC(C(=O)N4CCOCC4)CC3)ccnc21

1: 76.6; 2: 25.4; 3: 12.6; 4: 132; 5: 3; 6: 148
